target: LNX1_1, Q8TBB1; experiment: holdup assay; design: key: below the threshold = too weak to quantify, mostly under pKd 3.1 to 4; settings: plain residues with an end cap or a label only (N-terminal biotin on a linker: ado-ado)
Sequence (Q8TBB1 261-371): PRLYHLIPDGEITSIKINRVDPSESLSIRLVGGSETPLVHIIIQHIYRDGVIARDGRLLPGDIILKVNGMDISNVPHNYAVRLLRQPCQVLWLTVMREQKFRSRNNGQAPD
Endpoint name: pKd

SKENVQETQI [LRRC4B, Q9NT99]; below the threshold
LPAHHNATRL [SLC34A1, Q06495]; 3.72
YRLAQESGLV [ABCC6, O95255]; below the threshold
QHKTQLQTLI [BPIFA2, Q96DR5]; 4.27
EKKTLIGIKL [GOT1L1, Q8NHS2]; below the threshold
LRSPRTPSEV [OR10G3, Q8NGC4]; below the threshold
IPLDGETEEL [MYOZ1, Q9NP98]; below the threshold
AKPSRISTVV [IQSEC2, Q5JU85]; 4.34
KKAPTNEFYA [SDC4, P31431]; below the threshold
HLRARKSEWV [GJD4, Q96KN9]; below the threshold

Q) Recorded pKd for RRRESYSTTV [EVI5, O60447] , please?
A) 4.47

Q) Let us now turn to SAAKVLTSMC [GHRHR, Q02643]
A) 3.86

Q) Let us now turn to PPYRHRNTVV [ERBB4, Q15303]
A) 4.23

Q) Let us now turn to LPHPHSTTRV [NLGN2, Q8NFZ4]
A) 3.64

Q) Let us now turn to LKVPPEERLI [CRB2, Q5IJ48]
A) below the threshold

Q) Let us now turn to RRISSLESEV [GRIN2C, Q14957]
A) 4.34
